- TESTED_SYSTEM: Gal(b1-4)GlcNAc(b1-3)Gal(b1-4)GlcNAc(b1-3)Gal(b1-4)GlcNAc(b1-3)Gal(b1-4)GlcNAc(b1-3)Gal(b1-4)GlcNAc(b1-2)[Gal(b1-4)GlcNAc(b1-3)Gal(b1-4)GlcNAc(b1-3)Gal(b1-4)GlcNAc(b1-3)Gal(b1-4)GlcNAc(b1-3)Gal(b1-4)GlcNAc(b1-6)]Man(a1-6)[Gal(b1-4)GlcNAc(b1-3)Gal(b1-4)GlcNAc(b1-3)Gal(b1-4)GlcNAc(b1-3)Gal(b1-4)GlcNAc(b1-3)Gal(b1-4)GlcNAc(b1-2)Man(a1-3)]Man(b1-4)GlcNAc(b1-4)[Fuc(a1-6)]GlcNAc
- ASSAY_NOTES: glycan array binding signal (z-score within array); higher = stronger binding
- ASSAY_CONDITIONS: glycan notation: IUPAC condensed, linker removed
Shown is part of a subset that was picked to be rich in the strongest signals.
Each record's glycan array binding signal (z-score) is compared with Low (below 2), Medium (2 to below 5), High (5 or more) to give its class.

Prompt line: Any idea which band SP15308A-bot-339-19-339 (Bacteroides ovatus) (protein) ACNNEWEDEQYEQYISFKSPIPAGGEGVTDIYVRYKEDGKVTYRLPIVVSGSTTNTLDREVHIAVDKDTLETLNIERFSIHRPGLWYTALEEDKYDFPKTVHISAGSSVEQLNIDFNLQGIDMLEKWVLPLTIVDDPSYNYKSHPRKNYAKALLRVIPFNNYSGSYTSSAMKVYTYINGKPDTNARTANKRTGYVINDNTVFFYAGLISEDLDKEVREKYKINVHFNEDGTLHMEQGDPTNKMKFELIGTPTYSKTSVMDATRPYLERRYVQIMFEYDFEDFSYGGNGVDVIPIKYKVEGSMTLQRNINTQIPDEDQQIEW is in?
Response line: Low

Prompt line: What about this binder? Gal 3C (Homo sapiens), P17931 (protein) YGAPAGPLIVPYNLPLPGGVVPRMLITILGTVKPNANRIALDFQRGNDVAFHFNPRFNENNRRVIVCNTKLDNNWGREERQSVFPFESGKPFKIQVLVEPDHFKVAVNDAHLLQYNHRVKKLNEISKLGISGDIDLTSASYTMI
Response line: High

Prompt line: What about this binder? Threefoil (Haloarcula marismortui) (protein) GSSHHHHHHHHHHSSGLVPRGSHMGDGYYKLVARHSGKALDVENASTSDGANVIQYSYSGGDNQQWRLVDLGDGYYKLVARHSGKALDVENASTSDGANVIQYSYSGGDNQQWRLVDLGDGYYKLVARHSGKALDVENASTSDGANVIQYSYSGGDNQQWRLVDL
Response line: Medium

Prompt line: What about this binder? LBL-152 (Laetiporus bicolor), B0D650 (protein) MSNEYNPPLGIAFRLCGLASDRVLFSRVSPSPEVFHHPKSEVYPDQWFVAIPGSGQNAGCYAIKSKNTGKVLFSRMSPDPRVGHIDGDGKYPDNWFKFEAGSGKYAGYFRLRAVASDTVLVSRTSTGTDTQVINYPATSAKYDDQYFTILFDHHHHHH
Response line: High

Prompt line: What about this binder? SP8524D-bot-399-27-399 (Bacteroides ovatus) (protein) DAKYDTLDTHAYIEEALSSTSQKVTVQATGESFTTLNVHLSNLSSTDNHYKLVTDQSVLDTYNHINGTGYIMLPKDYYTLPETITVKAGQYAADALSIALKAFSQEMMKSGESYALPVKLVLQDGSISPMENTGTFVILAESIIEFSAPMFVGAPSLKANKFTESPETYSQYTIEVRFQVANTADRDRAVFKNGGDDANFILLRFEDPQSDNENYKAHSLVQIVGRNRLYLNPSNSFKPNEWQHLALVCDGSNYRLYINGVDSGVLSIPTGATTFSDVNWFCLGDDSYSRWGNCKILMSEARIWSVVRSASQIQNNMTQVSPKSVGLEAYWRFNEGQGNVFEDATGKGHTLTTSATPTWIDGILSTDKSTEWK
Response line: Low

Next:
Prompt line: Any idea which band CLEC5A (Homo sapiens), Q9NY25 (protein) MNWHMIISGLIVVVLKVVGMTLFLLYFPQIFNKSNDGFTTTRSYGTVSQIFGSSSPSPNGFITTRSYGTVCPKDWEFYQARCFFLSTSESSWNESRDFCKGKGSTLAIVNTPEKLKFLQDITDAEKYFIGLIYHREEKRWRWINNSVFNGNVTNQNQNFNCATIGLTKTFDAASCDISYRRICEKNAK is in?
Response line: Low

Prompt line: What about this binder? Drgal1 (Danio rerio) (protein) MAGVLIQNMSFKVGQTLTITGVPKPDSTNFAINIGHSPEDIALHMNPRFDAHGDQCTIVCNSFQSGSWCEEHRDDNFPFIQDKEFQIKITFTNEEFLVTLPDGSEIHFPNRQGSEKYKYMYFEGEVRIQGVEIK
Response line: Medium

Prompt line: What about this binder? Gal 8 (Homo sapiens) (protein) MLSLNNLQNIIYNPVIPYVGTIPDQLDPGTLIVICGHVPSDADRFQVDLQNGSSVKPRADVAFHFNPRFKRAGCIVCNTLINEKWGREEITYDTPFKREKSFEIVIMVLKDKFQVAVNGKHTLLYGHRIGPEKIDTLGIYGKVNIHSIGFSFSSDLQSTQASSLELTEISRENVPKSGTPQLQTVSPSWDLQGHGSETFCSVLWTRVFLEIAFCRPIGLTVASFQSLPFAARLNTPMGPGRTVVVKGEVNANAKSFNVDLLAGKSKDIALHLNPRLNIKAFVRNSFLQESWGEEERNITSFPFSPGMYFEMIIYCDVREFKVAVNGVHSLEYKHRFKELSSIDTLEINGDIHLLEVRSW
Response line: High

Prompt line: What about this binder? Ovorubin (Pomacea canaliculata), J7I2T6 (protein) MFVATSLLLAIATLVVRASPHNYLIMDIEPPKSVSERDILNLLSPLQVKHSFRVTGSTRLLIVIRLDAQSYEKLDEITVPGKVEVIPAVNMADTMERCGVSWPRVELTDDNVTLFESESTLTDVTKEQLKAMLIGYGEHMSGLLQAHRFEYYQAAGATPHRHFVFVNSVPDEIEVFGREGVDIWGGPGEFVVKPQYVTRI
Response line: Medium
